# credit: ChEMBL document CHEMBL3745631

Tested on: Liver microsome
measurementProtocol: Intrinsic clearance in human liver microsomes at 1 uM by LC-MS/MS analysis in absence of NADPH
Format: ADME
measuredParameter: CLH (L/h/kg)

compound | numericValue
Cc1c(-c2cc(Nc3cc4n(n3)CCN(C)C4)c(=O)[nH]n2)ccc(F)c1NC(=O)c1cnc(C(C)(C)C)cn1 | 0.36
CN1CCN(C)C(c2ccc(Nc3nc(-c4ccc(Cl)c(NC(=O)c5cc6c(s5)CCCC6)c4Cl)cn(C)c3=O)cc2)C1=O (racemic) | 0.36
CN1CCN(C)C(c2ccc(Nc3nc(-c4ccc(F)c(NC(=O)c5cc6c(s5)CCCC6)c4)cn(C)c3=O)cc2)C1=O (stereo in doubt; 8) | 0.36

====

systemUnderTest: Tyrosine-protein kinase BTK (Mus musculus)
Sequence (P35991 whole entry): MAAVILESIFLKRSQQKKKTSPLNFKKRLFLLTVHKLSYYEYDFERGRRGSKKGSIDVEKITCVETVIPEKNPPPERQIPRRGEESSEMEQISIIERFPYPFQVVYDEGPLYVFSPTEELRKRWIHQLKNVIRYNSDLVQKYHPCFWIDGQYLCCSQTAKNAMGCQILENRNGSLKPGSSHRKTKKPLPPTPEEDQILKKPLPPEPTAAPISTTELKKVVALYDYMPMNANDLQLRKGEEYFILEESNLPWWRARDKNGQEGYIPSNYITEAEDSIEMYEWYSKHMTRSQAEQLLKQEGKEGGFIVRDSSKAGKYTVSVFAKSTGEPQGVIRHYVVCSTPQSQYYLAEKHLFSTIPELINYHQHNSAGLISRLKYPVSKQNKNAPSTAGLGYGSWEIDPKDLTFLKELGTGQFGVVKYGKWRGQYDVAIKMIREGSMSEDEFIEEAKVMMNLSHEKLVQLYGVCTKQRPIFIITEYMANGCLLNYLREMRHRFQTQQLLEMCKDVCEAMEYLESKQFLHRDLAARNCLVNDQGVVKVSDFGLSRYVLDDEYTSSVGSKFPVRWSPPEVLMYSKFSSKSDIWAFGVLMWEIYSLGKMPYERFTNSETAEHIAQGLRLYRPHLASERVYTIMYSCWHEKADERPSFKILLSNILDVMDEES
measurementProtocol: Inhibition of BTK in Balb/c mouse B cells assessed as inhibition of anti-IgM-stimulated CD86 expression by flow cytometry
measuredParameter: IC50 (µM)

smilesRepresentation | systemUnderTest | IC50 / µM
Cc1ccc(-c2cc(Nc3cc4n(n3)CCN(C)C4)c(=O)[nH]n2)c(C)c1NC(=O)c1cc2ccccc2s1 | Tyrosine-protein kinase BTK (Mus musculus) | 0.387
CN1CCn2nc(Nc3cc(-c4ccc(F)c(NC(=O)c5cc6ccccc6s5)c4)n[nH]c3=O)cc2C1 | Tyrosine-protein kinase BTK (Mus musculus) | 0.05
Cc1c(-c2cc(Nc3cc4n(n3)CCN(C)C4)c(=O)[nH]n2)ccc(F)c1NC(=O)c1cc2ccccc2s1 | Tyrosine-protein kinase BTK (Mus musculus) | 0.091
CN1CCn2nc(Nc3cc(-c4ccc(F)c(NC(=O)c5cc6ccccc6s5)c4F)n[nH]c3=O)cc2C1 | Tyrosine-protein kinase BTK (Mus musculus) | 0.018

I: Cc1ccc(-c2cc(Nc3cc4n(n3)CCN(C)C4)c(=O)[nH]n2)c(F)c1NC(=O)c1cc2ccccc2s1
II: Cc1c(-c2cc(Nc3cc4n(n3)CCN(C)C4)c(=O)[nH]n2)ccc(F)c1NC(=O)c1ccc(C(C)(C)C)cc1
Request: Lab notebook, comparison: I versus II , higher IC50 goes to which? Select an item and report its label.
Response: I
(I: 0.2 µM, II: 0.054 µM)

====

Test system: Liver microsome
measurementProtocol: Intrinsic clearance in human liver microsomes at 1 uM by LC-MS/MS analysis in absence of NADPH
Format: ADME
measuredParameter: CLH (mL/min/kg)

molecule | numericValue
Cc1c(-c2cn(C)c(=O)c(Nc3ccc(C4C(=O)N(C)CCN4C)cc3)n2)ccc(F)c1NC(=O)c1cc2c(s1)CCCC2 (stereo in doubt; 13) | 6
CN1CCN(C)C(c2ccc(Nc3nc(-c4ccc(F)c(NC(=O)c5cc6c(s5)CCCC6)c4F)cn(C)c3=O)cc2)C1=O (centres undefined) | 6

====

measurementProtocol: Inhibition of anti-IgM-stimulated human B cell proliferation
measuredParameter: EC50 (nM)
Write the number in nM without appending the unit.

Request: I would be grateful if you could share the reported EC50 for Cc1c(-c2cc(Nc3cc4n(n3)CCN(C)C4)c(=O)[nH]n2)ccc(F)c1NC(=O)c1cc2ccccc2s1 .
Response: 6

====

Tested on: Liver microsome
measurementProtocol: Intrinsic clearance in human liver microsomes at 1 uM by LC-MS/MS analysis in absence of NADPH
Assay type: ADME
Known CLH of a selection of compounds

compound | CLH
Cc1c(-c2cc(Nc3cc4n(n3)CCN(C)C4)c(=O)[nH]n2)ccc(F)c1NC(=O)c1cc2ccccc2s1 | 6 mL/min/kg
CN1CCn2nc(Nc3cc(-c4ccc(F)c(NC(=O)c5cc6ccccc6s5)c4)n[nH]c3=O)cc2C1 | < 6 mL/min/kg

Request: Give the measured CLH of Cc1c(-c2cn(C)c(=O)c(Nc3ccc(C4C(=O)N(C)CCN4C)cc3)n2)ccc(F)c1NC(=O)c1cc2c(s1)CCCC2 (stereo in doubt; 14) .
Response: < 6 mL/min/kg

Request: Sample Cc1c(NC(=O)c2cc3c(s2)CCCC3)cccc1-c1cn(C)c(=O)c(Nc2ccc([C@@H]3C(=O)N(C)CCN3C)cc2)n1 — what was its CLH?
Response: > 15 mL/min/kg

====

System: Rattus norvegicus
measurementProtocol: Clearance in rat at 1 mg/kg, iv by LC-MS/MS analysis
Assay type: ADME, organism-based
particulars: in vivo
measuredParameter: clearance (mL/min/kg)
Report the value in mL/min/kg with no unit label.

Request: Return reported clearance; argument: Cc1c(-c2cc(Nc3cc4n(n3)CCN(C)C4)c(=O)[nH]n2)ccc(F)c1NC(=O)c1cc2ccccc2s1
Response: 5

====

measurementProtocol: Oral bioavailability in rat at 5 mg/kg by LC-MS/MS analysis
Type: ADME, organism-based
particulars: in vivo
measuredParameter: bioavailability (%)
Please give a number only; it is taken to be in %.

Request: Field request: bioavailability | item: Cc1c(-c2cc(Nc3cc4n(n3)CCN(C)C4)c(=O)[nH]n2)ccc(F)c1NC(=O)c1cc2ccccc2s1
Response: 26

====

Tested on: Cynomolgus monkey
measurementProtocol: Clearance in cynomolgus monkey at 1 mg/kg, iv by LC-MS/MS analysis
Type: ADME, organism-based, Macaca fascicularis
particulars: in vivo
measuredParameter: clearance (mL/min/kg)
# number only, unit mL/min/kg dropped from output

Request: GET /values?readout=clearance&item= Cc1c(-c2cc(Nc3cc4n(n3)CCN(C)C4)c(=O)[nH]n2)ccc(F)c1NC(=O)c1cc2ccccc2s1
Response: 4

====

Tested on: Canis familiaris
measurementProtocol: Clearance in dog at 1 mg/kg, iv by LC-MS/MS analysis
Type: ADME, organism-based, Canis lupus familiaris
particulars: in vivo
measuredParameter: clearance (mL/min/kg)
Write the number in mL/min/kg without appending the unit.

Request: If you can, please state the reported clearance value of Cc1c(-c2cc(Nc3cc4n(n3)CCN(C)C4)c(=O)[nH]n2)ccc(F)c1NC(=O)c1cc2ccccc2s1 .
Response: 14

====

Tested on: Liver microsome
measurementProtocol: Intrinsic clearance in human liver microsomes at 1 uM by LC-MS/MS analysis in absence of NADPH
Format: ADME
Catalogue of compounds with associated CLH

compound | measuredParameter | result
Cc1ccc(-c2cn(C)c(=O)c(Nc3ccc(C4C(=O)N(C)CCN4C)cc3)n2)c(C)c1NC(=O)c1cc2c(s1)CCCC2 (racemic) | CLH | < 6 mL/min/kg
CN1CCN(C)C(c2ccc(Nc3nc(-c4cccc(NC(=O)c5cc6c(s5)CCCC6)c4)cn(C)c3=O)cc2)C1=O (racemic) | CLH | > 15 mL/min/kg
CN1CCN(C)C(c2ccc(Nc3nc(-c4cccc(NC(=O)c5cc6c(s5)CCCC6)c4F)cn(C)c3=O)cc2)C1=O (racemic) | CLH | > 15 mL/min/kg

Request: Value lookup for CLH; key = CN1CCN(C)C(c2ccc(Nc3nc(-c4ccc(Cl)c(NC(=O)c5cc6c(s5)CCCC6)c4F)cn(C)c3=O)cc2)C1=O (centres undefined)
Response: < 6 mL/min/kg
